Where do these numbers come from? They come from the supplement of paper PMC7877785.

protocol: self-splicing fitness, log relative to wild type (ln ratio); higher = more splicing; Tetrahymena group I intron in knt gene, E. coli kanamycin selection, DiMSum; sequences stand for … in CUCUCU…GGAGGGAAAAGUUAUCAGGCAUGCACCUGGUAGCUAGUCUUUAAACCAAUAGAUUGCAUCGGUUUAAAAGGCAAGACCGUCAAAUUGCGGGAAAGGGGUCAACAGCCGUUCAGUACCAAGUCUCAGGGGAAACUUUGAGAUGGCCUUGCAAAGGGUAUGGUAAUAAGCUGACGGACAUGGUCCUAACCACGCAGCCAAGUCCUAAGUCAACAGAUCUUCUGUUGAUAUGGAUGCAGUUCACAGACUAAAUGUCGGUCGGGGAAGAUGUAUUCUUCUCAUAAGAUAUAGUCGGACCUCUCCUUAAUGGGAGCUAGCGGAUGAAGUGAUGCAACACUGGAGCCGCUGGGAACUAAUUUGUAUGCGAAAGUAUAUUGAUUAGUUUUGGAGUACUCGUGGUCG;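 also: selection with 25 µg/mL kanamycin versus none on LB agar overnight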
reported_conditions: 30 °C
reported_property: self-splicing fitness (ln)
The response must contain the number and no unit.

# count of solved cases: 4
input_sequence | value
GUCGAGCAAUAUUACGGUGC | -2.4
GGAAAGCAAUAUUACGCGGG | -2.64
GAACAGCAAUAUUACGUGAU | -0.746
CUACAGCAAUAUUACGACUC | -4.35

Enquiry: What does the record list as self-splicing fitness (ln) for `AAAUAGCAAUAUUACGGUCA` ?
Return: -0.724

Enquiry: What does the record list as self-splicing fitness (ln) for `AGCCAGCAAUAUUACGCUUA` ?
Return: -2.09

Enquiry: What does the record list as self-splicing fitness (ln) for `AAACAGCAAUAUUACGGCCG` ?
Return: -1.69

Enquiry: What does the record list as self-splicing fitness (ln) for `CGAAAGCAAUAUUACGCGGC` ?
Return: -2.81

Enquiry: What does the record list as self-splicing fitness (ln) for `GCAGAGCAAUAUUACGAGCA` ?
Return: -2.32

Enquiry: What does the record list as self-splicing fitness (ln) for `UCCAAGCAAUAUUACGCUCG` ?
Return: -4.74

Enquiry: What does the record list as self-splicing fitness (ln) for `GUAUAGCAAUAUUACGUCUA` ?
Return: -0.881

Enquiry: What does the record list as self-splicing fitness (ln) for `AGGCAGCAAUAUUACGCCCA` ?
Return: -0.718

Enquiry: What does the record list as self-splicing fitness (ln) for `UCUGAGCAAUAUUACGCAGG` ?
Return: -2.76

Enquiry: What does the record list as self-splicing fitness (ln) for `GAGAAGCAAUAUUACGUUCA` ?
Return: -0.919

Enquiry: What does the record list as self-splicing fitness (ln) for `GCCGAGCAAUAUUACGCCUU` ?
Return: -3.44

Enquiry: What does the record list as self-splicing fitness (ln) for `GGCCAGCAAUAUUACGGCAC` ?
Return: -1.58
